# Experimental Protocol: Cell viability (survival) assay with CellTiter-Glo, 48 hours
# Format: cell-based, mouse
# Assay Conditions: mouse; 40 uM, 48 hours, normalized to DMSO-treated control cells
Endpoint Label: viability at 48 h, 40 µM (%)
Write the value in % as a bare number.

Request: Entry under review: O=P1(N(CCCl)CCCl)NCCCO1 (stereo not shown) [CPM, cyclophosphamide] . Reported viability at 48 h, 40 µM?
Response: 98.5
